- Assay system: human TLR7 (Homo sapiens (Human))
- Sequence (Q9NYK1 27-1049): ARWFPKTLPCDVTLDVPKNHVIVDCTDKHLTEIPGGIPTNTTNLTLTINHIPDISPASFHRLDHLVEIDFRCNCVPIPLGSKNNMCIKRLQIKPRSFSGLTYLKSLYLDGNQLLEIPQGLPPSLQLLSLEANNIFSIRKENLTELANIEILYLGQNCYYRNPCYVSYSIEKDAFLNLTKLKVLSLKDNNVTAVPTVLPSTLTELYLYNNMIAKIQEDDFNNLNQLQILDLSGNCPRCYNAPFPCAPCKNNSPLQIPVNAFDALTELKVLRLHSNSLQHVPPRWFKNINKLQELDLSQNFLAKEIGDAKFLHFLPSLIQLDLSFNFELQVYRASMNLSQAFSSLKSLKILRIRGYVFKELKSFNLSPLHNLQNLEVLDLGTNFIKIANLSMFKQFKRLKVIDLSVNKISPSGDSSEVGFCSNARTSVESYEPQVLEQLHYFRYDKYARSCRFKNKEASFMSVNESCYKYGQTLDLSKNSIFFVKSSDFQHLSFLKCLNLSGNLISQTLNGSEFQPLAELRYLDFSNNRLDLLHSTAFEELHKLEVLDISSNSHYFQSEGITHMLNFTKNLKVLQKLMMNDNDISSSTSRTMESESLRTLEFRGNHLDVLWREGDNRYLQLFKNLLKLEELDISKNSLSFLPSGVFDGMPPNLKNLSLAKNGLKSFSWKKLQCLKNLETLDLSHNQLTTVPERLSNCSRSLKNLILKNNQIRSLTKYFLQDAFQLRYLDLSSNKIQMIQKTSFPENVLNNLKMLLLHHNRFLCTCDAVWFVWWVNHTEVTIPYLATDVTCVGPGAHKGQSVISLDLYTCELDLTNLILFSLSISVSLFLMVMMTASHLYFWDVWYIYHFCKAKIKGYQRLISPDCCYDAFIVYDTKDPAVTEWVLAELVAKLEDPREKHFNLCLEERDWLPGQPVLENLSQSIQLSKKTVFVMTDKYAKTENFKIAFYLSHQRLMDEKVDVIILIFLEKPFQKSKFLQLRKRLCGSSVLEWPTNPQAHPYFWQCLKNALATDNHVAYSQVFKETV
- Experiment notes: TLR7 inhibition reporter assay (HEK-Blue SEAP)
- Assay type: cell-based
- Condition context: HEK-Blue human TLR7 cells, gardiquimod 7.5 μM
Measurement label: log10 IC50 (log10 of the value in nM)

| Compound | log10 IC50 |
| --- | --- |
| Cc1c(-c2[nH]c3ccc(N4CCN(CC#N)C[C@@H]4C)nc3c2C(C)C)cn2ncnc2c1C | -0.19 |
| Cc1c(-c2[nH]c3ccc(N4C[C@H]5C[C@@H](C4)N5)nc3c2C(C)C)cn2ncnc2c1C | 0.20 |
| Cc1c(-c2[nH]c3ccc(N4CCN(C(=O)CN(C)C(C)(C)C)C[C@H]4C)nc3c2C(C)C)cn2ncnc2c1C | -0.07 |
| CCN(CC(=O)N1CCN(c2ccc3[nH]c(-c4cn5ncnc5c(C)c4C)c(C(C)C)c3n2)CC1)C(C)C | 0.00 |
| COc1cc(-c2[nH]c3ccc(C4CCC(N5CC6(CCOC6)C5)CC4)nc3c2C(C)C)cn2ncnc12 (stereo not shown) [Example 1070] | -0.27 |
| Cc1c(-c2[nH]c3ccc(C4CCC(N5CCC6(CCOC6)C5)CC4)nc3c2C(C)C)cn2ncnc2c1C (stereo not shown) [Example 1066] | 0.95 |
| COc1cc(-c2[nH]c3ccc(C4CCC(N5CCC6(COC6)C5)CC4)nc3c2C(C)C)cn2ncnc12 (stereo not shown) [Example 1068] | -0.06 |
